Measured inhibition accompanies every entry in the list below.
- assay.method.text: endothelial E-selectin expression blockers – imaging, HUVEC, immunofluorescence, MLSMR starter and 10KST1 sets, primary screen (AID 487);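 also: signal is fraction of cell area covered by stained E-selectin grains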
- measurement.context: HUVEC TNFalpha-induced E-selectin immunofluorescence imaging, at 2 µM; stronger effect = higher value
# output: bare number, implied unit %

A selection of reference data follows.
O=C(OCn1nnc2ccccc2c1=O)c1cc2ccccc2o1	-10.4
COc1cccc(-n2c(SCC(=O)N3CCCC3)nc3c([nH]c4ccccc43)c2=O)c1	5.4
O=C(NCCCN1CCOCC1)c1cc(-c2ccc(O)cc2)on1	-46.9
Cc1cc2c(cc1C)-c1nnnn1C(C)(C)C2	67.5
O=C(NCN1CCCCC1)c1cnccn1	-101
COc1cc2c(cc1OC)C(c1ccc(C)o1)CC(=O)N2 (configuration not stated)	-48.1
O=C(Oc1cccc2cccnc12)c1cccc(-n2cnnn2)c1	-16.1
COc1ccc(N(CC(=O)Nc2ccc3c(c2)OCO3)S(=O)(=O)c2c(C)nn(C)c2C)cc1	-46
C#CCNc1c(C)c(C)nc2ncnn12	-44.2
N/C(=N/O)c1nc(N2CCCCC2)nc(N2CCCCC2)n1	-50.5

Q: Which inhibition value belongs to CCn1nnc(NC(=O)c2ccc(-c3ccc(Cl)cc3)o2)n1 ?
A: -101

Q: So what does the record say about inhibition for COCCN(CCOC)Cc1c(C)[nH]c2ccccc2c1=O ?
A: 1.8

Q: Record request: inhibition value, item CCOC(=O)c1cnc2c(OC)cccc2c1N1CCN(c2ccc(OC)cc2)CC1
A: 2.9

Q: For N#CC1=C(N)OC(c2ccccc2)=C(C#N)C1c1ccc2c(c1)OCO2 (configuration not stated) , what is its reported inhibition?
A: 29.2

Q: Query: inhibition; subject: NCCN1CCN(CCN)CC1
A: -23.9

Q: Name the recorded inhibition for COc1ccc2nc(SCC(=O)NC(C)C)[nH]c2c1 .
A: -35.2

---

- assay.method.text: TLR3 IRF3 reporter activation blockers – cell-based, poly I:C stimulus, luciferase, 10K MLSCN set, primary screen (AID 602277)
- measurement.context: HEK293-TLR3 RL24 IRF3 luciferase reporter, at 10 µM, stronger effect = higher value
Activity calls are given as the source filed them.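 Rule for the calls: active = inhibition of the reporter signal at or above 50%; inactive = inhibition below 50%.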
Listed compounds paired with reported inhibition

Below, 6 compounds whose answers are already recorded.
O=C(O)C1C2CCC(O2)C1C(=O)NCCC1=CCCCC1 (centres undefined)	13.6% (inactive)
O=C(CSc1nc2ccccc2o1)Nc1ccccc1	-87.6% (inactive)
O=C(c1ccc2c(c1)OCCO2)C1CCN(C(=O)c2ccc(F)cc2)CC1	-2.46% (inactive)
CCCC(C)c1nnc(NC(=O)C2CCCO2)s1 (centres undefined)	-11.9% (inactive)
CN=C(Nc1cc(C)nn1-c1ccccc1)c1ccccc1	17.1% (inactive)
CN1C(=O)CC(N2CCC(C(N)=O)(N3CCCCC3)CC2)C1=O (centres undefined)	16.9% (inactive)

Q: Query (compound): COc1ccccc1C(=O)N1CCN(C(=O)c2ccncc2)CC1 ; field requested: inhibition
A: 6.89% (inactive)

Q: Consider the compound COc1ccccc1Nc1ccc(C(=O)NC2CCCCC2)cn1 and give its measured inhibition.
A: -22.4% (inactive)

Q: Data request, read-out inhibition, for c1ccc2c(c1)CC(N1CCCCC1)c1ccccc1N2 (centres undefined)
A: 24.1% (inactive)

Q: # input compound: Cc1cc2cc(CCNC(=O)CC(C)C)c(=O)[nH]c2cc1C ; wanted: its inhibition
A: -9.56% (inactive)

Q: Give the measured inhibition of COc1ccc(C(c2nnnn2C2CCCC2)N2CCN(C3CCCC3)CC2)cc1OC (centres undefined) .
A: 18.8% (inactive)

Q: For the compound shown here, COc1ccc(C2=NO[C@@H]3C(=O)N(c4cccc(C)c4C)C(=O)[C@H]23)cc1OC , give the reported inhibition.
A: -5.53% (inactive)

Q: Requested read-out: inhibition. Entry: Cc1ccc(C2Nc3ccccc3-c3nc4ccccc4n32)o1 (centres undefined)
A: -110% (inactive)

Q: Quick one: inhibition of CCOc1ccccc1NC(=O)CCN1CCN(S(=O)(=O)c2ccc(Br)cc2)CC1 ?
A: 21.5% (inactive)

Q: Entry CCOC(=O)c1[nH]c(CSc2nnc(-c3ccncc3)n2CCOC)c(C(=O)OCC)c1C has what inhibition?
A: 11.1% (inactive)

Q: Give the measured inhibition of Clc1ss/c(=N\c2ccccn2)c1Cl .
A: -24% (inactive)

Q: Consider the compound Cc1cccc(-n2nc3c(c2NC(=O)CCC2CCCCC2)CS(=O)C3)c1C (centres undefined) and give its measured inhibition.
A: 37.7% (inactive)

Q: Please look up its inhibition: N#Cc1cnc(SCC(=O)c2ccccc2)nc1N
A: -24.8% (inactive)

Q: Suppose we examine the compound Cc1ccccc1-n1nnc2c(=O)oc3ccccc3c21 ; what inhibition value has been reported?
A: 26.7% (inactive)

Q: What value of inhibition has been reported for the following compound? Nn1c(SCC(=O)Nc2ccc3c(c2)OCO3)nnc1C1CC1
A: 17.1% (inactive)

---

- assay.method.text: inhibitors of TNFa-induced NFkB p65 translocation, primary screen, imaging, HUVEC, MLSMR starter and 10KST1 sets (AID 438);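 also: compound added about 3h40 before a 20 min TNFalpha stimulation; signal is the nuclear over cytoplasmic p65 intensity ratio per well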
- measurement.context: HUVEC TNFa-induced p65 nuclear translocation; at 2 µM, stronger effect = higher value, 0% TNFa-plus-vehicle, 100% no-TNFa wells
Calls of active or inactive are those of the source.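 The calls were made as follows: active = inhibition above 20% together with a positive visual image hit; inconclusive = visual image hit but inhibition not above 20%; inactive = no visual image hit.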
assay.endpoint: inhibition

Worked cases, inhibition given:
Cc1nnc(SCCn2c(Br)nc3c2c(=O)n(C)c(=O)n3C)s1	3.8% (inactive)
CC(=O)NC(CCS(C)(=O)=O)C(=O)Nc1cccc2ccccc12 (configuration not stated)	3.9% (inactive)
Cc1noc(/C=C/N(C)C)c1S(=O)(=O)N1CCCC(C(=O)N2CCc3ccccc32)C1 (configuration not stated)	-4% (inactive)
Cc1cc(C)nc(NC2=NCC(=O)N2c2ccccc2Br)n1	-1.7% (inactive)
Nn1c(SCC(=O)Nc2ccc(Oc3ccccc3)cc2)nnc1C1CC1	-12.3% (inactive)
CCOc1ccc(NC(=O)C2CC(=O)N(C(C)C)C2)cc1 (configuration not stated)	-0.5% (inactive)
COCCn1c(SCC(=O)Nc2ccc3c(c2)OCCO3)nc2c(c1=O)SC(C)C2 (configuration not stated)	-4.4% (inactive)
Cc1noc(C)c1COc1cccc(C(=O)Nc2ccc(C#N)cc2)c1	0.4% (inactive)

Q: inhibition for N/C(=N/O)c1nc(N2CCCCC2)nc(N2CCCCC2)n1 ?
A: -16.2% (inactive)

Q: I'd like to know its inhibition. The compound in question is CCC(c1nnnn1Cc1ccco1)N(CCc1ccccc1)Cc1cc2cccc(C)c2[nH]c1=O (configuration not stated)
A: -8.4% (inactive)

Q: # input compound: COc1cc2nc(SCC(=O)NC3CC3)n(CCC3=CCCCC3)c(=O)c2cc1OC ; wanted: its inhibition
A: -4% (inactive)

Q: Recorded inhibition for CN(c1ccccc1)S(=O)(=O)c1ccc(C(=O)OCC(=O)N2CCOCC2)cc1 , please?
A: -5.7% (inactive)

Q: For the compound CC(=O)Nc1nc(=S)ss1 , what inhibition is on record?
A: -7.2% (inactive)

Q: Which inhibition reading was recorded for the compound CCN1CCCC1CNC(=O)CS(=O)(=O)Cc1nc(-c2ccccc2C)oc1C (configuration not stated) ?
A: -0.6% (inactive)

---

- assay.method.text: reduction of polyQ htt aggregates in cells – imaging, exon1htt(103Q)mCFP cells, high-content imaging, primary screen (AID 483);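 also: compound exposure lasted 3 days before fixation; percent of the per-plate median nuclei count of sample wells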
- measurement.context: exon1htt(103Q)mCFP cell line, aggregate imaging, at 2 µM; measured here: cell count, toxicity
Kind request: treat 90% as inclusive, so nuclei count at 90% or higher is Condition met, anything lower is Condition not met.

Consider the following illustrative entries.
CCCOC(=O)c1ccc(-c2c(C)noc2-c2ccc(OC)cc2O)o1	Condition met
Cn1cc(C(=O)c2ccc(F)cc2)cc1-c1nc2ccccc2n1C	Condition not met
CC1=C(C(=O)Nc2cccnc2)C(c2ccc(C(C)C)cc2)n2ncnc2N1 (stereo unspecified)	Condition met
CCN(CC)S(=O)(=O)c1ccc(F)cc1	Condition met
COc1ccc(S(=O)(=O)Nc2ccc(F)c(F)c2)cc1Cl	Condition met

Q: # bool: nuclei count of CCOC(=O)C1=C(C)NC(C)=C(C(=O)OCC)C1c1cc(N)ccc1OC(F)F >= 90%
A: Condition not met

Q: Is nuclei count for Cc1cccc(OCCCc2c(C)n[nH]c2C)c1 at or above 90%?
A: Condition met

Q: Evaluate C=CCSC1=C(C#N)C(c2ccccc2C)CC(=O)N1 (stereo unspecified) : nuclei count at minimum 90%?
A: Condition met

Q: Quick check, nuclei count >= 90%? O=C(CCc1nc2ccccc2s1)OCC(=O)N1CCN(C(=O)c2ccco2)CC1
A: Condition met

Q: Exam item: decide whether the reported nuclei count for Cc1ccccc1NC(=O)CSc1nc(N)c(C#N)c(-c2cccs2)c1C#N is at least 90%.
A: Condition met

---

- tested.target: Alpha-2C adrenergic receptor (Homo sapiens) (UniProt P18825)
- Sequence (P18825 whole entry, looked up): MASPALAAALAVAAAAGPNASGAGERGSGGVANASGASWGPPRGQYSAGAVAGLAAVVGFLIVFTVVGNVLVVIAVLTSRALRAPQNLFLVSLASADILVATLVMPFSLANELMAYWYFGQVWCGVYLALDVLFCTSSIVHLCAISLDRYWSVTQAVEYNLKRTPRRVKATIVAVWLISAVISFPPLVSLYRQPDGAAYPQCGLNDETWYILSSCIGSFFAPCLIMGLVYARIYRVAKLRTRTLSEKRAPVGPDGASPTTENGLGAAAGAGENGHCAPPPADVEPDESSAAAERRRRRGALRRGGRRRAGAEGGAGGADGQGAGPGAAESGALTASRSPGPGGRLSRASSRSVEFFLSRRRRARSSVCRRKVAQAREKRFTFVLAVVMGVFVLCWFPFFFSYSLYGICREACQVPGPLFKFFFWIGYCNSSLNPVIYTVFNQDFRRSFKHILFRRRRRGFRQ
- assay.method.text: compounds altering alpha2C-coupled GIRK flux – cell-based, HEK293 alpha2C/GIRK1/2, thallium flux, primary screen (AID 624);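 also: slope of fluorescence ratio to pre-addition baseline per second over 15 to 24 s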
- measurement.context: thallium flux BTC fluorescence, at 10 µM, actives lie on both sides
Hi, to clarify the labels: T covers slope from 0.006 upward, F covers anything below 0.006.

Example entries and their recorded answers appear below.
Cc1oc(-c2ccc(Cl)cc2)nc1CS(=O)CC(=O)NCCCN(C)C1CCCCC1 (stereo unspecified)	F
CCN1CCN(c2ncc(C(=O)N3CCN(c4ccccc4OC)CC3)c3ccccc23)CC1	T
Cc1ccc2c(c1)C(O)(CC(=O)c1ccc3c(c1)OCO3)C(=O)N2 (stereo unspecified)	F

Q: Is the recorded value of slope equal to or greater than 0.006 for this compound? CCOc1ccc(N2CC(C(=O)Nc3ccccc3OC)CC2=O)cc1 (stereo unspecified)
A: F

Q: Identify whether the reported slope of the following compound is 0.006 or greater: CCOCC(=O)Nc1nc2c(s1)C(=O)CC(C)(C)C2
A: T

Q: Reported slope at or above 0.006? COc1ccc(Cn2nnnc2C(c2cc3cc(C)cc(C)c3[nH]c2=O)N2CCOCC2)cc1 (stereo unspecified)
A: F

Q: Decide: slope of COc1ccccc1OCCCn1c(=O)oc2ccccc21 >= 0.006?
A: F

Q: Reported slope reaches at least 0.006 for Cc1nnc(SCc2ccccc2F)n1NCc1cccs1 ?
A: T

Q: Determine whether measured slope meets or exceeds 0.006 for CCOc1ccc(-c2nc(C#N)c(N3CCCCCC3)o2)cc1
A: T

Q: I'd appreciate it if you could say whether O=C1CCCCCN1CSc1nc2ccccc2s1 has slope at least equal to 0.006.
A: T

Q: Determine whether measured slope meets or exceeds 0.006 for CC1=C(C(=O)OC2CCCCC2)C(c2cccnc2)n2ncnc2N1 (stereo unspecified)
A: F

Q: Exam item: decide whether the reported slope for CSC1=C(C#N)C(c2ccc(Cl)cc2)C2=C(CC(C)(C)CC2=O)N1 (stereo unspecified) is at least 0.006.
A: T

Q: Does slope meet or surpass 0.006 for CC1(C)CC(=O)CC(=Nc2ccc(C(=O)O)cc2)C1 ?
A: T

Q: Check this compound for slope at or above 0.006: CN1CCc2c(sc3c2c(=O)n(-c2ccccc2)c2nnc(SCc4ccc(F)cc4)n32)C1
A: T

Q: Check the entry COc1cc(C2c3c(n[nH]c3C)C(=O)N2c2ccc(Br)cc2)ccc1O (stereo unspecified) : does slope equal or exceed 0.006?
A: F

Q: Does the reported slope for O=C(CSc1nc(O)c(Cc2ccccc2)c(=O)[nH]1)Nc1ccccc1 fall at or above the 0.006 mark?
A: F

Q: Is reported slope greater than or equal to 0.006 here: O=C(c1ccc(Cl)cc1)N1CCCCC(Sc2nnc(-c3ccc4c(c3)OCO4)o2)C1=O (stereo unspecified)
A: T

Q: # bool: slope of CCc1nnc(-n2nc(C)cc2-c2ccccc2)n1N >= 0.006
A: T
